# TEST SETTINGS: in DMSO, 309.65 K
EXPERIMENTAL READOUT: solubility (mole fraction)

Supply solubility (mole fraction) value. Item: `O=C(O)c1ccccc1C(=O)O`
0.352

----------
# TEST SETTINGS: in NMP, 307.95 K
EXPERIMENTAL READOUT: solubility (mole fraction)
Answer with the value's number alone.

Supply solubility (mole fraction) value. Item: `O=C(O)c1ccccc1C(=O)O`
0.105

----------
# TEST SETTINGS: in NMP, 300.65 K
EXPERIMENTAL READOUT: solubility (mole fraction)
Answer with the value's number alone.

Supply solubility (mole fraction) value. Item: `Cc1ccccc1C(=O)O`
0.49

----------
# TEST SETTINGS: in NMP, 333.25 K
EXPERIMENTAL READOUT: solubility (mole fraction)
Answer with the value's number alone.

Supply solubility (mole fraction) value. Item: `O=C(O)c1ccccc1C(=O)O`
0.219

----------
# TEST SETTINGS: in propionic acid, 303.65 K
EXPERIMENTAL READOUT: solubility (mole fraction)
Answer with the value's number alone.

Supply solubility (mole fraction) value. Item: `Cc1ccccc1C(=O)O`
0.198

----------
# TEST SETTINGS: in DMAc, 333.95 K
EXPERIMENTAL READOUT: solubility (mole fraction)
Answer with the value's number alone.

Supply solubility (mole fraction) value. Item: `O=C(O)c1ccccc1C(=O)O`
0.415

----------
# TEST SETTINGS: in acetonitrile, 325.55 K
EXPERIMENTAL READOUT: solubility (mole fraction)

Supply solubility (mole fraction) value. Item: `Cc1ccccc1C(=O)O`
0.378

----------
# TEST SETTINGS: in acetonitrile, 299.15 K
EXPERIMENTAL READOUT: solubility (mole fraction)
Answer with the value's number alone.

Supply solubility (mole fraction) value. Item: `Cc1ccccc1C(=O)O`
0.314

----------
# TEST SETTINGS: in DMSO, 323.65 K
EXPERIMENTAL READOUT: solubility (mole fraction)
Answer with the value's number alone.

Supply solubility (mole fraction) value. Item: `Cc1ccccc1C(=O)O`
0.581

----------
# TEST SETTINGS: in DMAc, 338.95 K
EXPERIMENTAL READOUT: solubility (mole fraction)
Answer with the value's number alone.

Supply solubility (mole fraction) value. Item: `Cc1ccccc1C(=O)O`
0.291

----------
# TEST SETTINGS: in acetonitrile, 319.25 K
EXPERIMENTAL READOUT: solubility (mole fraction)
Answer with the value's number alone.

Supply solubility (mole fraction) value. Item: `Cc1ccccc1C(=O)O`
0.36

----------
# TEST SETTINGS: in DMF, 342.15 K
EXPERIMENTAL READOUT: solubility (mole fraction)
Answer with the value's number alone.

Supply solubility (mole fraction) value. Item: `O=C(O)c1ccccc1C(=O)O`
0.528

----------
# TEST SETTINGS: in DMAc, 329.35 K
EXPERIMENTAL READOUT: solubility (mole fraction)
Answer with the value's number alone.

Supply solubility (mole fraction) value. Item: `O=C(O)c1ccccc1C(=O)O`
0.373

----------
# TEST SETTINGS: in DMSO, 317.25 K
EXPERIMENTAL READOUT: solubility (mole fraction)
Answer with the value's number alone.

Supply solubility (mole fraction) value. Item: `O=C(O)c1ccccc1C(=O)O`
0.357

src = BigSolDB 2.1
